Reference source for all entries: patent US12522597B2

System: MDR1-MDCK cell monolayers
Assay: MDCK-MDR1 permeability assay (BBB penetration potential)
Format: in vitro ADME
Conditions: dog, MDCK-MDR1, 120 min, 5 μM, pH 7.4
Lab note: anything with MDCK-MDR1: % Recov B-A below 70% is marked 1; values at 70% or higher are marked -1.

Worked cases, answers included:
Q: Given Oc1cc(-c2ccn3ccnc3c2)ccc1-c1ccc(O[C@@H]2C[C@H]3CCC[C@H](N3)[C@@H]2F)nn1 (single isomer, unassigned) [83-ENT1] , is recorded MDCK-MDR1: % Recov B-A strictly lower than 70%?
A: 1

Q: Given O=c1cc(-c2ccc(-c3ccc(O[C@@H]4C[C@H]5CCC[C@H](N5)[C@@H]4F)nn3)c(O)c2)cc[nH]1 (single isomer, unassigned) [53-ENT1] , is recorded MDCK-MDR1: % Recov B-A strictly lower than 70%?
A: -1

Q: Given Cn1ccc2cc(O)c(-c3ccc(O[C@@H]4C[C@@]5(C)CC[C@](C)(N5)[C@@H]4F)nn3)cc2c1=O (single isomer, unassigned) [130-ENT2] , is recorded MDCK-MDR1: % Recov B-A strictly lower than 70%?
A: -1

Further cases:
Q: Given Cc1nc(-c2ccc(-c3ccc(O[C@@H]4C[C@H]5CCC[C@H](N5)[C@@H]4F)nn3)c(O)c2)co1 (single isomer, unassigned) [92-ENT1] , is recorded MDCK-MDR1: % Recov B-A strictly lower than 70%?
A: -1

Q: Given N#Cc1ccc(-c2ccc(O[C@H]3C[C@@H]4CC[C@@H](N4)[C@H]3F)nn2)c(O)c1 (single isomer, unassigned) [111-ENT2] , is recorded MDCK-MDR1: % Recov B-A strictly lower than 70%?
A: -1

Q: Given Cc1ccc(-c2ccc(-c3ccc(O[C@H]4C[C@@H]5CCC[C@@H](N5)[C@H]4F)nn3)c(O)c2)nn1 (single isomer, unassigned) [75-ENT2] , is recorded MDCK-MDR1: % Recov B-A strictly lower than 70%?
A: -1

====

Tested on: MDR1
Assay: MDCK-MDR1 permeability assay (BBB penetration potential)
Format: in vitro ADME
Conditions: dog, MDCK-MDR1, pH 7.4, MDCK-MDR1: Papp A-B
Overview of recorded Papp A→B at 120 min, 5 μM for various compounds
Give your result in ×10⁻⁶ cm/s as a bare value.

Reference set (5 entries):
Q: Query Papp A→B at 120 min, 5 μM for O=c1cc(-c2ccc(-c3ccc(O[C@H]4C[C@@H]5CCC[C@@H](N5)[C@H]4F)nn3)c(O)c2)cc[nH]1 (single isomer, unassigned) [53-ENT2]
A: 0.22

Q: Query Papp A→B at 120 min, 5 μM for C[C@@]12CCC[C@@](C)(N1)[C@@H](F)[C@@H](Oc1ccc(-c3ccc(-c4cn[nH]c4)cc3O)nn1)C2 (single isomer, unassigned) [147-ENT1]
A: 4.61

Q: Query Papp A→B at 120 min, 5 μM for Cc1nnc(-c2ccc(-c3ccc(O[C@H]4C[C@@H]5CCC[C@@H](N5)[C@H]4F)nn3)c(O)c2)o1 (single isomer, unassigned) [94-ENT2]
A: 6.35

Q: Query Papp A→B at 120 min, 5 μM for Cn1cc(-c2cc(O)c(-c3ccc(O[C@H]4C[C@@H]5CC[C@@H](N5)[C@H]4F)nn3)cc2F)cn1 (single isomer, unassigned) [61-ENT2]
A: 4.5

Q: Query Papp A→B at 120 min, 5 μM for Cc1cncc(-c2ccc(-c3ccc(O[C@@H]4C[C@H]5CCC[C@H](N5)[C@@H]4F)nn3)c(O)c2)n1 (single isomer, unassigned) [102-ENT1]
A: 7.66

Now, please, on to the next compound.
Q: Query Papp A→B at 120 min, 5 μM for Cc1cc(-c2ccc(-c3ccc(O[C@@H]4C[C@H]5CCC[C@H](N5)[C@@H]4F)nn3)c(O)c2)cnn1 (single isomer, unassigned) [90-ENT1]
A: 1.82
